These entries and their values trace back to PubChem BioAssay (NCI).

system: OVCAR-8 ovarian; experiment: NCI-60 one-dose screen, 48 h; conditions: 10 µM unless noted
About 83,000 compounds went through this panel and 20% of them were active in at least one assay; those are over-represented in the sample as a whole. Active and inactive are the calls of the source. How the source made its calls: active means growth percent below 10; inactive means the rest.
Pick one: Y (active), N (inactive)

Past entries and their recorded results:
Returns: the outcome recorded for "C=C(C)[C@@H]1CC[C@]2(COCCC#N)CC[C@]3(C)[C@H](CC[C@@H]4[C@@](C)(CCCNCCC#N)[C@H](C(=C)C)CC[C@]43C)[C@@H]12" in this assay.
Y

Name the outcome recorded for "NC(=O)c1c(NC(=O)COC(=O)Cc2ccccc2F)sc2c1CCC2" in the assay.
N

Could you please tell me the result logged for "Nc1nc(Nc2ccccc2)c2ncn(Cc3cc4c(cc3Br)OCO4)c2n1" in this assay?
Y

***
Any idea what this test logged for "COc1ncc(-c2ccc3nccc(C#CCCCCC(=O)O)c3c2)cc1NS(=O)(=O)c1ccc(F)cc1F" ?
N

// param item: "O=C(CCNCc1ccccc1)c1ccccc1" ; yields the recorded call
N

* * *

tested on: HCT-116 colon; experiment: NCI-60 one-dose screen, 48 h; conditions: 10 µM unless noted
The panel holds about 83,000 compounds, 20% with a hit somewhere; the sample as a whole holds those more often. The source made the active and inactive calls. Rule for the calls: active = growth percent below 10; inactive = the rest.
Answer with one of the outcomes active, inactive

Hi, do you know how CCCCC(CC)COC(=O)C[N+](C)(C)CCOC(c1ccccc1)c1ccccc1 (centres undefined) came out in this test?
inactive

How did this test come out for "Brc1ccc(-c2nnc3c4[nH]ccc4ncn23)cc1" ?
inactive

I'd appreciate the recorded outcome for "CCOC(=O)c1cnc2ccc(Br)cc2c1Nc1cccc(S(N)(=O)=O)c1" from this test.
inactive

Outcome logged for "C=C1C(=O)O[C@H]2[C@H]1CC/C(COC(=O)NCc1ccc(Cn3c(=O)sn(-c4ccc(Cl)cc4)c3=O)cc1)=C\CC[C@@]1(C)O[C@@H]21" in this assay:
inactive

# outcome recorded in this test, key = "Cn1c(=O)c(C#N)c(-c2ccco2)n2c(S(=O)(=O)Cc3ccccc3)nnc12"
inactive

Further cases:
Could you kindly confirm the outcome this assay logged for "COc1ccc(OC)c(NC=O)c1" ?
inactive

Field: outcome | Entry: "Cc1ccc2c(n1)C(=O)C(Cl)=C(Nc1ccc(N3CCN(C)CC3)cc1)C2=O"
active

Give the logged outcome of this assay for the following compound: "c1cc2ccc1CNCCN1CCNCc3ccc(cc3)Oc3ccc(cc3)CNCCN(CCNCc3ccc(cc3)O2)CCNCc2ccc(cc2)Oc2ccc(cc2)CNCC1"
active

Which result was noted for this compound in the test: "COC(=O)c1c(C)[nH]c(/C=C2\N=C(c3ccc[nH]3)C=C2OC)c1C"
active

* * *

tested on: NCI-H322M lung; test: NCI-60 one-dose screen, 48 h (100 = growth as untreated, 0 = no growth, -100 = all killed); details: 10 µM unless noted
Compounds without any hit were thinned out: in the full panel of roughly 83,000, 20% have a hit. Calls of active or inactive are those of the source. Rule for the calls: active = growth percent below 10; inactive = the rest.
reported.metric: growth

Please state recorded growth (tested on NCI-H322M lung) of "COC(=O)[C@]1(C)CC[C@]2(C)CC[C@]3(C)C(=CC(=O)[C@@H]4[C@@]5(C)CCC(=O)NC(C)(C)[C@@H]5CC[C@]43C)[C@@H]2C1"
29.1% [100 µM] (inactive)

Further cases:
Notebook entry, NCI-H322M lung assay: growth of "[2H]C1([2H])CCN(C(=O)C2CC2)c2cc(NS(=O)(=O)c3ccc(-c4cccc(C(N)=O)c4)cc3)ccc21" = ?
64.6% (inactive)

Which growth is reported with NCI-H322M lung for this entry: "Cc1nc(-c2ccccc2)sc1CC#N" ?
101% (inactive)

Requested read-out growth, target or system NCI-H322M lung, entry C=C(C)C1CCC2(C(=O)O)CCC3(C)C(CCC4C5(C)CCC(OC(=O)NCc6ccccc6)C(C)(C)C5CCC43C)C12 (stereo not drawn)
59.3% (inactive)

What reported growth corresponds to "CCCCCn1sc(=O)n(Cc2ccc(CNC(=O)OCc3ccc4cccc(O)c4n3)cc2)c1=O" on NCI-H322M lung?
41.8% (inactive)

Short answer please: growth, NCI-H322M lung, entry "N#Cc1c(N2CCOCC2)nc(=S)[nH]c1-c1ccco1"
74.5% (inactive)

* * *

Test system: SR leukemia
Assay: NCI-60 one-dose screen, 48 h
Details: 10 µM unless noted
Description: Growth inhibition of the SR human tumor cell line is measured as a screen for anti-cancer activity. Cells are grown in 96 well plates and exposed to the test compound for 48 hours. Compounds are tested at a single concentration, which is 10^-5 M for most compounds. The reported endpoint is percent growth (GI% or GIPRCNT), where numbers from 0 - 100% represent growth inhibition, and numbers from -100% - 0 represent cell death. For example, a value of 40 represents 60% growth inhibition. […]
This is part of a sample that, as a whole, favours compounds with a hit. Of some 83,000 tested, about 20% had one in any assay. Calls of active or inactive are those of the source. Rule for the calls: active = growth percent below 10; inactive = the rest.
Hi! Could you answer with just one of these? active, inactive

Known results for compounds:
Returns: the outcome recorded for COc1ccc2c(c1)C(C)Cc1c(Cl)ncnc1N2C (stereo not given) in this assay.
active

In this assay, the call recorded for "CC(C)CCSC1=CC(=O)c2ccccc2C1=O" was what?
active

***
// param item: "COc1cc(Cl)cc(-c2nn(C(=O)NS(=O)(=O)c3ccccc3)cc2-c2ccncc2)c1" ; yields the recorded call
inactive

For "COc1cc2c(cc1OCCCCCOc1ccc(-n3c(C)nc4ccccc4c3=O)cc1)N=C[C@@H]1CCCN1C2=O" , what call appears in the results of this test?
active

Could you please tell me the result logged for "C=C(C)[C@@H]1CC[C@]2(C(=O)OC)CC[C@]3(C)[C@H](CC[C@@H]4[C@@](C)(CCc5nn[nH]n5)[C@H](C(=C)C)CC[C@]43C)[C@@H]12" in this assay?
inactive

Call for entry "CCOC(=O)n1cc(C2=C(c3ccc(OC)c(OC)c3)COC2=O)c2ccccc21" :
inactive

Test call for this compound, please: CCN(CC)CCSC(=O)C(O)(c1ccccc1)C1CCCC1 (stereo not given)
inactive

* * *

test system: SN12C renal; test: NCI-60 one-dose screen, 48 h; settings: 10 µM unless noted
Compounds without any hit were thinned out: in the full panel of roughly 83,000, 20% have a hit. Activity calls are given as the source filed them. How the source made its calls: active means growth percent below 10; inactive means the rest.
Please state which outcome applies, choosing from t (active), f (inactive)

Example entries begin here.
Would you mind telling me which call this test gave "COc1ccc(C(=O)CSc2nccc(Nc3ccc(C(=O)O)cc3)n2)cc1" ?
f

Recorded call for "COc1cc2c(cc1OCCCCCOc1ccc(-n3c(C)nc4ccccc4c3=O)cc1)N=C[C@@H]1CCCN1C2=O" ?
f

Status in this test for "O=C(CSc1nccc(Nc2ccc(S(=O)(=O)Nc3ccccn3)cc2)n1)c1ccc(Cl)cc1" ?
f

Hi, do you know how "COc1ccc2c(c1)c(-c1noc(-c3cn(C)c4ncc(F)cc34)n1)cn2C" came out in this test?
f

Check the results log: what was the call for O=C1Cc2c(sc3c(F)cccc23)C(c2ccccc2[N+](=O)[O-])N1 (stereo not drawn) ?
f

For "CC1(C)CC[C@]2(C(=O)O)CC[C@]3(C)C(=CC[C@@H]4[C@@]5(C)C/C(=C/c6ccco6)C(=O)C(C)(C)[C@@H]5CC[C@]43C)[C@@H]2C1" , what call appears in the results of this test?
t

// return assay outcome for "CN(Cc1cccc(C(F)(F)F)c1)C(=O)[C@@H](CC(=O)N1CCC(N2CCCCC2)CC1)N1C(=O)[C@@H](N2C(=O)OC[C@@H]2c2ccccc2)[C@H]1/C=C/c1ccccc1"
f

Which outcome was entered for the compound "CC1(C)CC[C@]23CC[C@]4(C)[C@H](CC[C@@H]5[C@@]6(C)C/C(=C/c7ccncc7)C(=O)C(C)(C)[C@@H]6CC[C@]54C)[C@H]2[C@H]1OC3=O" in this test?
f

Continuing:
Query: recorded result category for "C[C@H]1[C@H](C)CC[C@]2(C(=O)O)CC[C@]3(C)C(=CC[C@@H]4[C@@]5(C)C/C(=C/c6cccnc6)[C@H](O)C(C)(C)[C@@H]5CC[C@]43C)[C@H]12" in this test
t

* * *

tested on: HT29 colon; test: NCI-60 one-dose screen, 48 h; settings: 10 µM unless noted
This is part of a sample that, as a whole, favours compounds with a hit. Of some 83,000 tested, about 20% had one in any assay. Calls of active or inactive are those of the source. How the source made its calls: active means growth percent below 10; inactive means the rest.
Please reply with one of these outcomes: active, inactive

For "CC1(C)CC[C@]2(C(=O)OC(=O)[C@]34CCC(C)(C)C[C@@H]3C3=CC[C@@H]5[C@@]6(C)CCC(=O)C(C)(C)[C@@H]6CC[C@@]5(C)[C@]3(C)CC4)CC[C@]3(C)C(=CC[C@@H]4[C@@]5(C)CCC(=O)C(C)(C)[C@@H]5CC[C@]43C)[C@H]2C1" , which call appears in the assay record?
inactive

---
I'd appreciate the recorded outcome for "COc1cc(NCc2cn(-c3ccc(C(=O)O)cc3)nc2-c2ccc(C(=O)O)cc2)cc(OC)c1OC" from this test.
inactive

// outcome(item) with item = "CC(C)c1ccc(/C=N/N=C(N)N)cc1"
inactive

What was the test verdict on "Cc1ccc(S(=O)(=O)NCCCNc2nccc(-c3c(-c4cccc(F)c4)nc4occn34)n2)cc1" ?
inactive

Identify the outcome logged in this assay for the molecule shown: "CCN(CC)c1ccc(/C=C/c2ccc3cc(C)ccc3[n+]2CC)cc1"
active

I would be grateful if you could indicate the recorded call for "COc1ccc2c3ccnc(C(F)(F)F)c3n(CCCCN)c2c1" .
inactive
